Hey, just so you know, these numbers are from patent US10703764B2.

biological target: BRD4 BD1 (Homo sapiens, UniProt O60885); assay: AlphaScreen binding assay, BRD4 Bromodomain 1
pIC50: −log10 of the molar value.
Quick reference for pIC50 among some compounds

Answered cases to consult:
compound="COc1ccc(OC(=O)N2C[C@H](C)N(C(C)=O)c3ccc(-c4cnn(C5CC5)c4)cc32)c(F)c1 [Example I-523]" value_measured="6.00 to 7.00"
compound="CC(=O)N1c2ccc(-c3ccc(S(C)(=O)=O)cc3)cc2N(C(=O)c2ncoc2C)C[C@@H]1C [Example I-884]" value_measured="< 5.00"
compound="CC(C)OC(=O)N1C[C@H](C)N(C(=O)C2CC2)c2ccc(-c3ccc(C(=O)N4CCNCC4)cc3)cc21 [Example I-558]" value_measured="6.00 to 7.00"

// map CC(=O)N1c2ccc(-c3cccc(C(=O)NC4CC4)c3)cc2N(C(=O)c2ccco2)C[C@@H]1C [Example I-802] to recorded pIC50 (system: BRD4 BD1 (Homo sapiens, UniProt O60885))
5.00 to 6.00

###

biological target: BRD4 BD1 (Homo sapiens); test: AlphaScreen binding assay, BRD4 Bromodomain 1
REPORTED METRIC: IC50

Recorded results for 8 compounds are shown here.
compound="COC(=O)N1c2ccc(-c3ccc(S(=O)(=O)CCN)cc3)cc2N(C(=O)OC(C)C)C[C@@H]1C [Example I-488]" value_measured="0.1 to 1 µM"
compound="CCC[C@@H](C)CN1C[C@H](C)N(C(C)=O)c2ccccc21 [Example I-927]" value_measured="> 10 µM"
compound="CC(=O)N1c2ccc(-c3ccc(S(=O)(=O)NCCO)cc3)cc2N(C(=O)c2ccco2)C[C@@H]1C [Example I-293]" value_measured="1 to 10 µM"
compound="CC(=O)Nc1cc2c(cc1Br)N(C(=O)OC(C)C)C[C@H](C)N2C(C)=O [Example I-203]" value_measured="1 to 10 µM"
compound="CC(=O)N1c2ccc(-c3ccc(S(=O)(=O)NCCO)cc3)cc2N(C(=O)C2CC2)C[C@@H]1C [Example I-1035]" value_measured="1 to 10 µM"
compound="C[C@H]1CN(c2nc3ccccc3o2)c2cc(-c3cnn(C4CC4)c3)ccc2N1C(=O)C1CC1 [Example I-92]" value_measured="1 to 10 µM"
compound="CC(=O)N1c2ccc(-c3cccc(N(C)C)c3)cc2N(C(=O)c2ccco2)C[C@@H]1C [Example I-870]" value_measured="0.1 to 1 µM"
compound="COc1cccc(NC(=O)N2C[C@H](C)N(C(C)=O)c3ccc(-c4ccc(S(C)(=O)=O)cc4)cc32)c1 [Example I-967]" value_measured="> 10 µM"

Query: IC50; subject: CC(=O)N1c2ccc(-c3ccc(OCCS(C)(=O)=O)cc3)cc2N(C(=O)OC2CCOCC2)C[C@@H]1C [Example I-1252]
0.1 to 1 µM

What value of IC50 has been recorded for this entry: COc1ncccc1C(=O)N1C[C@H](C)N(C(C)=O)c2ccccc21 [Example I-758]
> 10 µM

Would you mind telling me what IC50 value was observed for CC(=O)N1c2ccc(-c3cnn(C4COC4)c3)cc2N(C(=O)OCC2(F)COC2)C[C@@H]1C [Example I-66] ?
< 0.1 µM

I am curious: what IC50 value has been reported for CC(=O)N1c2ccccc2N(C(=O)COc2ccc(Cl)cc2)C[C@@H]1C [Example I-732] ?
> 10 µM

// returns reported IC50 for input CC(=O)N1c2ccccc2N(C(=O)c2cc3ccccc3n2C)C[C@@H]1C [Example I-748]
> 10 µM

Param item = CC(=O)N1c2ccc(-c3ccc(C(=O)N[C@H]4C[C@H]5CC[C@@H](C4)N5)cc3)cc2N(C(=O)OC(C)C)C[C@@H]1C [Example I-594] ; retrieve measured IC50.
0.1 to 1 µM

Quick check: IC50 of CC(=O)N1c2ccc(-c3cccc(S(N)(=O)=O)c3)cc2N(C(=O)c2ccco2)C[C@@H]1C [Example I-841] ?
1 to 10 µM
